The measurements presented in this section are drawn from PubChem BioAssay (NCI).

Test system: MCF7 breast
Assay: NCI-60 one-dose screen, 48 h (100 = growth as untreated, 0 = no growth, -100 = all killed)
Conditions: 10 µM unless noted
This is part of a sample that, as a whole, favours compounds with a hit. Of some 83,000 tested, about 20% had one in any assay. The source made the active and inactive calls. Rule for the calls: active = growth percent below 10; inactive = the rest.
Can you tell me growth for the items I'm about to list?

[in] // returns reported growth for input Cc1cc2nc(-c3ccccc3)c(-c3ccccc3)nc2cc1C
[out] 88.9% (inactive)

[in] Thanks! And COc1ccc(-c2nc(N=Nc3c(O)[nH]c4ccccc34)nc(N3CCOCC3)c2C#N)cc1 ?
[out] 60.6% (inactive)

[in] Thanks! And COc1ccc2c(Nc3ccc(NS(C)(=O)=O)cc3)c3ccccc3nc2c1 ?
[out] 11.1% (inactive)

[in] Thanks! And CN1CCN(CCCOc2ccc3ncnc(Nc4ccc(Oc5cccc(C(F)(F)F)c5)c(Cl)c4)c3c2)CC1 ?
[out] -28.7% (active)

[in] Thanks! And COc1ccc(C(=O)c2cc3c(N)c(C(=O)Nc4ccc(Br)cc4)sc3nc2C)cc1 ?
[out] 71% (inactive)

[in] Thanks! And COc1cc(C(=O)/C=C/c2c(C)n([O-])c3ccc(Cl)cc3[n+]2=O)cc(OC)c1OC ?
[out] 30.4% (inactive)

[in] Thanks! And COc1ccc(/C=C/C(=O)c2ccc(Nc3ncnc4ccccc34)cc2)cc1OC ?
[out] 16.1% (inactive)

[in] Thanks! And Cn1c(COC(=O)N2CCCCC2)nc2c(N3CCOCC3)nc(-c3ccccc3)nc21 ?
[out] -65.3% (active)

[in] Thanks! And COc1cc(C2CC(c3cccc(Nc4ccncc4)c3)=NN2C(C)=O)cc(OC)c1OC (centres undefined) ?
[out] 72.6% (inactive)
